target of assay: Kdn(a2-6)Gal(b1-4)GlcNAc
assay notes: glycan array binding signal (z-score within array); higher = stronger binding
recorded conditions: glycan notation: IUPAC condensed, linker removed
The sample as a whole holds a higher share of the strongest signals than the screen did.
readout name: glycan array binding signal (z-score)
Reply with the value as a number alone.

binder: Sebin1 (Coprinopsis cinerea), A8PEE3 (protein) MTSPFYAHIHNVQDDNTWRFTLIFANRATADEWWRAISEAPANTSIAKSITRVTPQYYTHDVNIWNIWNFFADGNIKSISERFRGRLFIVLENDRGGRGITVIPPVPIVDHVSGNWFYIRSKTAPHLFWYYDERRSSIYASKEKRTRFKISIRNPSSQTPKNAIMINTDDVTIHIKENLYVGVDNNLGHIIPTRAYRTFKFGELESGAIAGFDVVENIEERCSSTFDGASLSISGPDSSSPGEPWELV
glycan array binding signal (z-score): -0.282

For AT1G15820(2) (Arabidopsis thaliana), Q9LMQ2 (protein) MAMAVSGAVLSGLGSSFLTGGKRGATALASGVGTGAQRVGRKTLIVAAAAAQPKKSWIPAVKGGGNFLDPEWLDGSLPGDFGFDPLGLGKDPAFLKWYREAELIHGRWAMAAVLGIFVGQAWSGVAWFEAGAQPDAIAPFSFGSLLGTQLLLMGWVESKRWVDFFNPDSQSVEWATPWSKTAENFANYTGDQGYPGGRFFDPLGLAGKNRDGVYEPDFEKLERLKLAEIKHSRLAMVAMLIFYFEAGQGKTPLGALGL , what is its reported glycan array binding signal (z-score)?
-0.581

For ABA (Agaricus bisporus), Q00022 (protein) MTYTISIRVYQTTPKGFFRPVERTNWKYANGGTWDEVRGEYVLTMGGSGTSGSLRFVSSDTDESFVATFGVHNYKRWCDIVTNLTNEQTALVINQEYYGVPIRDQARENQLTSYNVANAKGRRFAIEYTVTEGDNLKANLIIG , what is its reported glycan array binding signal (z-score)?
-0.239

For pTFF2 (Sus scrofa), P01359 (protein) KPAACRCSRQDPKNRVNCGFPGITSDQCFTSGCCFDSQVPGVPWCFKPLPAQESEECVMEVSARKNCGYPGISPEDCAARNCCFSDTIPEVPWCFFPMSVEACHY , what is its reported glycan array binding signal (z-score)?
0.54

For Strep tagII-anxA1 (Homo sapiens), P04083 (protein) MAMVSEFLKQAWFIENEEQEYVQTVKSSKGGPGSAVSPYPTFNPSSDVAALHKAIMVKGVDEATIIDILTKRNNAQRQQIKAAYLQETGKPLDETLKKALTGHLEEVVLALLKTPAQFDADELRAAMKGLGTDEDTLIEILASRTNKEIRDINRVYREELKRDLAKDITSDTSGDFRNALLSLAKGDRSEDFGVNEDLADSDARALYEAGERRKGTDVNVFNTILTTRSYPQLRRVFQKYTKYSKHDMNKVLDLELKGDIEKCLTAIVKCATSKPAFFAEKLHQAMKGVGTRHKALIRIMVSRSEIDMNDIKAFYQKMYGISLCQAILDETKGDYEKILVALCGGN , what is its reported glycan array binding signal (z-score)?
-0.606
